Just for reference, PubChem BioAssay is where these values come from.

# Run Description: stimulators of nuclear beta-catenin in C2C12, primary screen, imaging, WNT3A-conditioned medium, mouse C2C12, NPC library (AID 1117326); further: reference of the scale not given here
# Experimental Parameters: stimulation, at 2 µM, stronger effect = higher value
Attribute: nuclear beta-catenin stimulation
Only the number, expressed in %, is required.

Molecule	Result Number
COc1ccc2c(c1)C(=O)N(CCc1ccc(S(=O)(=O)NC(=O)NC3CCCCC3)cc1)C(=O)C2(C)C	10.6
CC1=C(CC(=O)O)c2cc(F)ccc2/C1=C\c1ccc(S(C)(=O)=O)cc1	-0.8
CN(C)CCOC1=Cc2ccccc2Sc2ccc(Cl)cc21	-1
O=C(NCC1CN(c2ccc(N3CCOCC3=O)cc2)C(=O)O1)c1ccc(Cl)s1 (stereo unspecified)	-0.7
c1ccc2ccccc2c1	7.8

Next:
Prompt: Query (molecule): C[C@@H](O)[C@H]1C(=O)N2C(C(=O)O)=C(SCCN=CN)C[C@H]12 ; field requested: nuclear beta-catenin stimulation
Completion: 4

* * *

# Run Description: inhibition of endothelial tube formation, primary screen, imaging, VEGF stimulated, CD31 staining, tube area, NPC library (AID 1117340)
# Experimental Parameters: VEGF-stimulated ADSC/ECFC co-culture, at 10 µM, stronger effect = higher value
Readout Kind: tube area decrease (%)
I only need the number, in %, no unit after it.

Known tube area decrease results, listed for orientation:
Compound	tube area decrease [%]
O=C(Nc1cccc2c(=O)cc(-c3nn[nH]n3)oc12)c1ccc(OCCCCc2ccccc2)cc1	-18.5
CCCCCCCCCCCCCCC[C@H](O)[C@@H](N)CO	17.5
FC(F)(F)C(F)(F)C(F)(F)C(F)(F)C(F)(F)C(F)(F)C(F)(F)C(F)(F)Br	-4.5
CC1(C)CCC(C)(C)c2cc(NC(=O)c3ccc(C(=O)O)cc3)ccc21	5.5
O=C(O)c1c(Cl)c(Cl)c(Cl)c(Cl)c1-c1c2cc(I)c(=O)c(I)c-2oc2c(I)c(O)c(I)cc12	23.9

Prompt: Find the recorded tube area decrease belonging to CC(C)NCC(O)COc1cccc2[nH]ccc12 (stereo unspecified) and report it.
Completion: 0

Prompt: Request: CC(=O)N[C@@H](CCC(N)=O)C(=O)O
Completion: 12.1

Prompt: Okay, and NCCc1ccn[nH]1 ?
Completion: -21.4

* * *

# Study Target: Calcium-activated potassium channel subunit alpha-1 (Homo sapiens) + Leucine-rich repeat-containing protein 26 (Homo sapiens) (UniProt Q12791+Q2I0M4)
# Sequence (Q2I0M4 whole entry, looked up, one chain of several): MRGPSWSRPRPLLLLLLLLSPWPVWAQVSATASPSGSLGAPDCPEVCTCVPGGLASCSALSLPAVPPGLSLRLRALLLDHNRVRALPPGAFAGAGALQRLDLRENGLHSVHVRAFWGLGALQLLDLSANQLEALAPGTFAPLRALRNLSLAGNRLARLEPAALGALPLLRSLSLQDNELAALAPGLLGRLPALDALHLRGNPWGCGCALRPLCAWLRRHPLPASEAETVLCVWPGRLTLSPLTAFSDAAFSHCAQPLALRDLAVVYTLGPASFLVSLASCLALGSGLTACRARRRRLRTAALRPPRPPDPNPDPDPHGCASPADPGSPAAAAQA
# Run Description: modulators of BK channel variants, profiling panel, selectivity assay, cell-based, U2OS BacMam, thallium flux, beta subunits (AID 1259406);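 further: initial slope of Thallos dye fluorescence rise after thallium is added; log ratio against the mean of 0.3% DMSO vehicle wells on the same plate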
# Experimental Parameters: F380Y/Slo1WT/gamma1, at 30 µM
Readout Kind: log fold change Tl+ flux
The reply should be a number, written without any unit.

The examples below pair each entry with its known result.
Compound	log fold change Tl+ flux
CC(C)NCC(O)COc1cccc2ccccc12 (stereo not given)	-0.019
CC(=O)N=c1sc(S(N)(=O)=O)nn1C	-0.0355
CC(=O)O[C@]1(C(C)=O)CC[C@H]2[C@@H]3C[C@H](C)C4=CC(=O)CC[C@]4(C)[C@H]3CC[C@@]21C	-0.0359

Prompt: Which measured log fold change Tl+ flux value corresponds to CC(C)OC(=O)C(C)(C)Oc1ccc(C(=O)c2ccc(Cl)cc2)cc1 ?
Completion: -0.00437

Prompt: Same question, Nc1ncnc2c1ncn2[C@@H]1O[C@H](CO)[C@@H](O)[C@@H]1O this time
Completion: 0.0271
